Assign growth to each entry below.
# Tested on: HS 578T breast
# ASSAY_OVERVIEW: NCI-60 one-dose screen, 48 h (100 = growth as untreated, 0 = no growth, -100 = all killed)
# COND: 10 µM
# Method: Growth inhibition of the HS 578T human tumor cell line is measured as a screen for anti-cancer activity. Cells are grown in 96 well plates and exposed to the test compound for 48 hours. Compounds are tested at a single concentration, which is 10^-5 M for most compounds. The reported endpoint is percent growth (GI% or GIPRCNT), where numbers from 0 - 100% represent growth inhibition, and numbers from -100% - 0 represent cell death. For example, a value of 40 represents 60% growth inhibition. […]
About 83,000 compounds went through this panel and 20% of them were active in at least one assay; those are over-represented in the sample as a whole.
Your answer is read as %, so omit the unit and give the number.

Lookup: Bench note: what growth did CC(C)=CCC[C@H](C)c1ccc(C)c2c1OCN(CCO)C2 show?
Found: 75.6

Lookup: One more compound: COc1ccc2[nH]c(C(=O)OCc3ccc4c(Br)cc(Br)c(O)c4n3)cc2c1
Found: -15.4

Lookup: Let us now turn to CCCCn1c(C)nc2cc(Nc3nc(Cl)nc4nc[nH]c34)ccc21
Found: 52.7

Lookup: Subsequent entry: CC1(C)CC[C@]2(C(=O)N3CCNCC3)CC[C@]3(C)C(=CC[C@@H]4[C@@]5(C)CCC(=O)C(C)(C)[C@@H]5CC[C@]43C)[C@@H]2C1
Found: 104

Lookup: What do you get for COC1=CC(c2ccc[nH]2)=N/C1=C\c1[nH]c(C)c(C(=O)CCCCCCCCC(=O)O[C@H]2CC[C@H]3C4CCc5cc(O)ccc5C4CC[C@]23C)c1C (stereo partly drawn) ?
Found: 10.7

Lookup: Same for N#Cc1c(NN)n(C2OC(CO)C(O)C2O)c2ncnc(N)c12 (stereo not drawn)
Found: 9.12

Lookup: Another compound to look at: Nc1ccc(C(OC(=O)c2cc3ccccc3c(Cc3c(O)c(C(=O)OC(c4ccc(N)cc4)(c4ccc(N)cc4)c4ccc(N)cc4)cc4ccccc34)c2O)(c2ccc(N)cc2)c2ccc(N)cc2)cc1
Found: -18.4

Lookup: How about CC(=O)c1nn(-c2ccccc2)/c(=N\N=C\c2coc3ccc(F)cc3c2=O)s1 ?
Found: 95.1

----------
# Tested on: CAKI-1 renal
# ASSAY_OVERVIEW: NCI-60 one-dose screen, 48 h (100 = growth as untreated, 0 = no growth, -100 = all killed)
# COND: 10 µM unless noted
The panel holds about 83,000 compounds, 20% with a hit somewhere; the sample as a whole holds those more often.
Provide the reported growth of each item.
// return numeric value only (unit: %, not printed)

Lookup: Bench note: what growth did Nc1nc(N)c2c(n1)NC(c1sc(Cl)nc1Cl)CC(c1ccccc1)=N2 (stereo not drawn) show?
Found: 44.8

Lookup: Note, next up: Cc1nc2ccc(Nc3nc(Cl)nc(N4CCOCC4)n3)cc2n1Cc1ccccc1
Found: 104

Lookup: Check O=C(CCc1nc2sc3c(c2c(=O)[nH]1)CCC3)NCc1cn(-c2ccccc2)nc1-c1ccccc1 too.
Found: 92.5

Lookup: // same read-out, input: CC(C)CC(NC(=O)C(CCCN=C(N)N)NC(=O)OCc1ccccc1)C(=O)NC(CNC(=O)/C=C/c1ccccc1)C(C)C (stereo not drawn)
Found: 90

Lookup: Query CCOC(=O)C1=C(C)NC(SCc2nnc(-c3ccc(Cl)cc3)o2)=NC1c1ccc(Br)cc1 (stereo not drawn) next
Found: 67.2

Lookup: Now consider CC1=C(C(=O)Nc2ccc(F)cc2)C(c2ccccc2)C2=C(CC(C)(C)CC2=O)N1 (stereo not drawn) and answer again.
Found: 64.3

Lookup: Same question, Nc1ccc(C(OC(=O)c2cc3ccccc3c(Cc3c(O)c(C(=O)OC(c4ccc(N)cc4)(c4ccc(N)cc4)c4ccc(N)cc4)cc4ccccc34)c2O)(c2ccc(N)cc2)c2ccc(N)cc2)cc1 this time
Found: 11.3

Lookup: And then CC1CN(CCCOC(=O)Nc2ccc(Cl)cc2)CCN1C(C)(C)C (stereo not drawn) , what is it?
Found: 89.8
